B1: CD2-associated protein, residues 271 to 331; numbered along this chain, Q9Y5K6 (parent)
chain: KEYCRTLFAYEGTNEDELTFKEGEIIHLISKETGEAGWWRGELNGKEGVFPDNFAVQINEL

# Variants of: B1
# measurement-description: abundance fitness (aPCA) (normalised: wild type 0, dead -1); higher = more abundant; growth selection in yeast, the domain comes from the species named
# experimental-conditions: Homo sapiens
Category | rule: reported abundance fitness within range, see bin 1 = under -0.5, bin 2 = from -0.5 up to -0.08, bin 3 = -0.08 and over

Inquiry: Form field 'band' for `Y3S`
Reply text: bin 2

Inquiry: Form field 'band' for `R5G`
Reply text: bin 1

Inquiry: Each variant maps to one class by abundance fitness. Which class for `G37M` ?
Reply text: bin 1

Inquiry: For this variant, which bin applies? `L43F`
Reply text: bin 2

Inquiry: Class label required: `L61E`
Reply text: bin 3

Inquiry: Would you mind sorting `E60P` into the appropriate category?
Reply text: bin 3

Inquiry: Dear colleague, I would appreciate it if you could identify the bin for `Y3A` and reply at your convenience.
Reply text: bin 2

Inquiry: Consider `H27S` . To which abundance fitness class does it belong?
Reply text: bin 2

Inquiry: # bin lookup: classify `E2K` by its abundance fitness
Reply text: bin 2

Inquiry: // bin(item) where item = `A55C`
Reply text: bin 3
